Hi there, I'd appreciate the recorded MC4R selectivity vs MC1R for every entry that follows.
test-system: human MC4R receptor (human, UniProt P32245 1-332)
Sequence (P32245 whole entry): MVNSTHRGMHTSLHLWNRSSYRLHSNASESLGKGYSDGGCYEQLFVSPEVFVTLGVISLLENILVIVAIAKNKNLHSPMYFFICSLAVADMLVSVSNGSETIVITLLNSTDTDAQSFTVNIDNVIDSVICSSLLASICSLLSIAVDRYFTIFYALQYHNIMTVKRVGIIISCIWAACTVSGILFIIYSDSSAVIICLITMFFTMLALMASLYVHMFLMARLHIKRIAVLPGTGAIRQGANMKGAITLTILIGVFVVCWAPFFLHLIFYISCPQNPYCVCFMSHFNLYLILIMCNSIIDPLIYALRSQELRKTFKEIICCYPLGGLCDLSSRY
protocol: cell-based or functional assay
Positions of bridges follow the written chain, without caps; N, C: chain ends. Non-standard residues stand in square brackets, D forms with d. dPhe(4-Br) = N[C@H](Cc1ccc(Br)cc1)C(=O)O; d2Nal = N[C@H](Cc1ccc2ccccc2c1)C(=O)O; Cit = NC(=O)NCCC[C@H](N)C(=O)O; Nle = CCCC[C@H](N)C(=O)O; Orn = NCCC[C@H](N)C(=O)O; Aib = CC(C)(N)C(=O)O

Which MC4R selectivity vs MC1R is listed for Ac-RC[dA]R[dF]R[d2Nal]C-NH2 (disulfide 2-8) [CTX-1264] ?
0.14

Next binder: Ac-RC[Aib][Orn][dF]RFC-NH2 (disulfide 2-8; SMILES CC(=O)N[C@@H](CCCNC(=N)N)C(=O)N[C@H]1CSSC[C@@H](C(N)=O)NC(=O)[C@H](Cc2ccccc2)NC(=O)[C@H](CCCNC(=N)N)NC(=O)[C@@H](Cc2ccccc2)NC(=O)[C@H](CCCN)NC(=O)C(C)(C)NC1=O) [CTX-1602]
3.65

Next binder: Ac-R[Nle]CR[dPhe(4-Br)]RFC-NH2 (disulfide 3-8; SMILES CCCC[C@H](NC(=O)[C@H](CCCNC(=N)N)NC(C)=O)C(=O)N[C@H]1CSSC[C@@H](C(N)=O)NC(=O)[C@H](Cc2ccccc2)NC(=O)[C@H](CCCNC(=N)N)NC(=O)[C@@H](Cc2ccc(Br)cc2)NC(=O)[C@H](CCCNC(=N)N)NC1=O) [CTX-1623]
1.08

Next binder: Ac-CG[Cit][dF]RFC-NH2 (disulfide 1-7; SMILES CC(=O)N[C@H]1CSSC[C@@H](C(N)=O)NC(=O)[C@H](Cc2ccccc2)NC(=O)[C@H](CCCNC(=N)N)NC(=O)[C@@H](Cc2ccccc2)NC(=O)[C@H](CCCNC(N)=O)NC(=O)CNC1=O) [CTX-1639]
8.32

Next binder: {CH2CO}-GR[dF]RWC-NH2 (thioether N-6; SMILES N=C(N)NCCC[C@@H]1NC(=O)CNC(=O)CSC[C@@H](C(N)=O)NC(=O)[C@H](Cc2c[nH]c3ccccc23)NC(=O)[C@H](CCCNC(=N)N)NC(=O)[C@@H](Cc2ccccc2)NC1=O) [CTX-1645]
9.04

Next binder: Ac-RCG[Cit][dF]RWC-NH2 (disulfide 2-8) [CTX-1294]
111

Next binder: {CH2CO}-GH[dF]RFC-NH2 (thioether N-6; SMILES N=C(N)NCCC[C@@H]1NC(=O)[C@@H](Cc2ccccc2)NC(=O)[C@H](Cc2c[nH]cn2)NC(=O)CNC(=O)CSC[C@@H](C(N)=O)NC(=O)[C@H](Cc2ccccc2)NC1=O) [CTX-1653]
0.83
